Target: T1, Cynomolgus monkey CD98 ECD with C-terminal His-tag (cynomolgus monkey, UniProt P08195 105-529 (human entry))
T1 construct: also called cyCD98 ECD; recombinant cynomolgus monkey CD98 extracellular domain
T1 chain: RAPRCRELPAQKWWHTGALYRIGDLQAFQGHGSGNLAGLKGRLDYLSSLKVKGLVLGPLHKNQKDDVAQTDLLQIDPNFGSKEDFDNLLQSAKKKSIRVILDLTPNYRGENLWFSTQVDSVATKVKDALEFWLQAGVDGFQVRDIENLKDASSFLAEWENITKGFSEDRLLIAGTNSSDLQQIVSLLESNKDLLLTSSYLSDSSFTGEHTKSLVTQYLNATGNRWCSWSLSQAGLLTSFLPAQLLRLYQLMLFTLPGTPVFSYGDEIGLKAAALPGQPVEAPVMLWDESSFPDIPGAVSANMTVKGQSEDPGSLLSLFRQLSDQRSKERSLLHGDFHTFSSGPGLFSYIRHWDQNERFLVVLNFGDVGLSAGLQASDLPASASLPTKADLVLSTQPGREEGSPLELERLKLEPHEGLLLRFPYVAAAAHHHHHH
Test: SPR Biacore, anti-Fc capture of mAb, CD98 ECD analyte
Please go through the items and note down their Kd.
Quick reminder: number only, in nM, skip the unit.

Any idea what Kd was measured for Recombinant anti-CD98 chimeric antibody chAb9 (antibody, human IgG1, V domains shown) VH: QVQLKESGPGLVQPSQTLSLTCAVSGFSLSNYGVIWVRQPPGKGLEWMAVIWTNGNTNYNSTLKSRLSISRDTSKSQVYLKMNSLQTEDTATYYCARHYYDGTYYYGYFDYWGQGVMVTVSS VL: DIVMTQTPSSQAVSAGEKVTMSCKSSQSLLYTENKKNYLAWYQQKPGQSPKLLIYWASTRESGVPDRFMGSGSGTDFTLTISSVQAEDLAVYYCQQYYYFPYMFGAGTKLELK ?
19

Any idea what Kd was measured for Recombinant anti-CD98 chimeric antibody chAb12 (antibody, human IgG1, V domains shown) VH: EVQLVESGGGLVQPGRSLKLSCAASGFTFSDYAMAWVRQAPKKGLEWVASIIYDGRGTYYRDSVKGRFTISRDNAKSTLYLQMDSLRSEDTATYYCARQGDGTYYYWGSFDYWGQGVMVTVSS VL: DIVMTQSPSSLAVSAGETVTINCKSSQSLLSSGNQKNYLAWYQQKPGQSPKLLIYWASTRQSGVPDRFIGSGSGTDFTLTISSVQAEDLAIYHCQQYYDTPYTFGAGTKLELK ?
3.8

Any idea what Kd was measured for Recombinant anti-CD98 chimeric antibody chAb10 (antibody, human IgG1, V domains shown) VH: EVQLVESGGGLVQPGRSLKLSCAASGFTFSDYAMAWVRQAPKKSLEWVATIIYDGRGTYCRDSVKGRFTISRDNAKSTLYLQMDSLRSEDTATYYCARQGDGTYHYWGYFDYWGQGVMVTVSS VL: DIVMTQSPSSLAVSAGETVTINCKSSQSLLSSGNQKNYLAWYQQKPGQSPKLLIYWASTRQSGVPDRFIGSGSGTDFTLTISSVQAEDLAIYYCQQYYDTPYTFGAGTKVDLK ?
11

Any idea what Kd was measured for Recombinant anti-CD98 chimeric antibody chAb14 (antibody, human IgG1, V domains shown) VH: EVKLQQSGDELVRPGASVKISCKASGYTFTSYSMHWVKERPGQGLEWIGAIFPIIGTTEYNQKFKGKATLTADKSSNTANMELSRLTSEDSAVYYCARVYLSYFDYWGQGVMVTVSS VL: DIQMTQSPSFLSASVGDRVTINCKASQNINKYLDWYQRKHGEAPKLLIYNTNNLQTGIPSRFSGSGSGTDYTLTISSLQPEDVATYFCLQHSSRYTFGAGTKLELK ?
110
